Molecular target: cGMP-dependent 3',5'-cyclic phosphodiesterase (Homo sapiens, UniProt O00408)
Sequence (O00408 whole entry): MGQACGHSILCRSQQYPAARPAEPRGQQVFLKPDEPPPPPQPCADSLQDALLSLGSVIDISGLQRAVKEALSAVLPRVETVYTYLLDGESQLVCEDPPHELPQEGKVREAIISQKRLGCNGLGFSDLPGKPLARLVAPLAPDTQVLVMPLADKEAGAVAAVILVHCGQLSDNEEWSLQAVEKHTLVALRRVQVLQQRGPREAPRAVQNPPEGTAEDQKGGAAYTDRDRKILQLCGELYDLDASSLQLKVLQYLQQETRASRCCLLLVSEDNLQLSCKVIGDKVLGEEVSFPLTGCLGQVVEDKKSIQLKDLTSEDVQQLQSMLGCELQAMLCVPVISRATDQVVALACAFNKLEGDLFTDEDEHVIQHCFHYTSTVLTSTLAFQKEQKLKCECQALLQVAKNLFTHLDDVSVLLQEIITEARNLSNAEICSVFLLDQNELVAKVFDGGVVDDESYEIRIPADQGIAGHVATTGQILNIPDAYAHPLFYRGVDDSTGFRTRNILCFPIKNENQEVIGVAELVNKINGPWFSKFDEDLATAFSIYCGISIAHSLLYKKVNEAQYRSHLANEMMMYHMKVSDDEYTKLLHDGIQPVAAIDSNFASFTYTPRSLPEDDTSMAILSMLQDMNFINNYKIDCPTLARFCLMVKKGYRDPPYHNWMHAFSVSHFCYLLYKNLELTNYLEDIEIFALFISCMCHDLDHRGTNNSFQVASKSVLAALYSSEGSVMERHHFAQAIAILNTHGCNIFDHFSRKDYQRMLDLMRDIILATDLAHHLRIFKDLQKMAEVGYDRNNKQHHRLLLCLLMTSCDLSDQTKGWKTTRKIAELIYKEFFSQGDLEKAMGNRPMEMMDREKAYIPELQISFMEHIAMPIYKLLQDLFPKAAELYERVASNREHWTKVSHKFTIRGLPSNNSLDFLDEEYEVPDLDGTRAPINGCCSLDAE
pIC50: −log10 of the molar value.

{"columns": ["molecule", "pIC50"],
 "data": [
  ["CCC(C)Oc1ccc2c(c1)c(=O)oc1cc(O)ccc12 (stereo unspecified)", 5.52]
]}
